# system.tested: T1, EsCas13d, nuclease-dead (Eubacterium siraeum, UniProt B0MS50, R295A;H300A;R849A;H854A)
# T1 sequence: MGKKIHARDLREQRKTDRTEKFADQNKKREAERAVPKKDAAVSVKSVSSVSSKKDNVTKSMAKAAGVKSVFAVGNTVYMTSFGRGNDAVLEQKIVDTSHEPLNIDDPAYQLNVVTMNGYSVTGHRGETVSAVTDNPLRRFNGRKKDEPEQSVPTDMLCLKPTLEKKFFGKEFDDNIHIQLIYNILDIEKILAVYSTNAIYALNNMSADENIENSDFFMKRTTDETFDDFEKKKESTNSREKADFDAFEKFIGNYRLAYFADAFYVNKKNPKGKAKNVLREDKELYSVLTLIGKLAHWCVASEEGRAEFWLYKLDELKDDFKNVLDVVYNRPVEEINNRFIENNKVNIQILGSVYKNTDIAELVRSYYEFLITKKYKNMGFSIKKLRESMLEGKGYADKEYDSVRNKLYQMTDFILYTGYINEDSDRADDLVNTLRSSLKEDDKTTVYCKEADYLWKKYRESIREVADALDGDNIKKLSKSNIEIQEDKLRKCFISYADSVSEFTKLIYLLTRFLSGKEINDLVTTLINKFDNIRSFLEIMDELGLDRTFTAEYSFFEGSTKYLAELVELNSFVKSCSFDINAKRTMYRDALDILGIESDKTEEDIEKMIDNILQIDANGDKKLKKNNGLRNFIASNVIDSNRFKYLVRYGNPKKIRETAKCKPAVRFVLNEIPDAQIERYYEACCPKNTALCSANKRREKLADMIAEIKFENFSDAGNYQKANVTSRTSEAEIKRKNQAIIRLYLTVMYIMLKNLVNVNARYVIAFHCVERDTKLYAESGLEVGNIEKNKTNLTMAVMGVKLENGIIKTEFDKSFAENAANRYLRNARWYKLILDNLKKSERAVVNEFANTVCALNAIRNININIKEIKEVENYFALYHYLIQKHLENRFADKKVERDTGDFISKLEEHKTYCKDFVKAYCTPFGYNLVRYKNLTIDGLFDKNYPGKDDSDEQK
# assay.info: crRNA (strand 1, pre-loaded); Mg2+; 40 mM Tris-HCl pH 7.5, 150 mM NaCl, 6 mM MgCl2, 1 mM DTT, 0.1% Tween-20, 0.2 mg/ml BSA; 25 C; 10 min per concentration, then washed
# assay.context: tags: His6-TwinStrep-SUMO cleaved; N-terminal SNAP kept (SNAP-Surface 488); label: 3' end held by stalled T7 RNA polymerase
pKd: −log10 of the molar value.

>  <binder>
target 1 A9C,G12C (mixed) RNA 1: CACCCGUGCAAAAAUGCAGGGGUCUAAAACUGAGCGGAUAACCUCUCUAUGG RNA 2: GGGAAUGGAUCCACAUCUACGAAUUCGUACCAUAGAGAGCUUCUCCGCUCACCGAGAUCGGAAGAGCACACGU

>  <pKd>
7.64

$$$$
>  <binder>
target 1 insA 3' of 6,insG 3' of 4 (mixed) RNA 1: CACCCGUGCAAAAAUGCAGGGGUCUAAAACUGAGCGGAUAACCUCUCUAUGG RNA 2: GGGAAUGGAUCCACAUCUACGAAUUCGUACCAUAGAGAGGUUAUCCAGCGUCACCGAGAUCGGAAGAGCACACGU

>  <pKd>
7.90

$$$$
